Target: T1, CD27 expressed on the cell surface (HT1080_CD27 cells) (human, UniProt P26842 20-260); also: test concentration or dose not given here
T1 sequence (looked up): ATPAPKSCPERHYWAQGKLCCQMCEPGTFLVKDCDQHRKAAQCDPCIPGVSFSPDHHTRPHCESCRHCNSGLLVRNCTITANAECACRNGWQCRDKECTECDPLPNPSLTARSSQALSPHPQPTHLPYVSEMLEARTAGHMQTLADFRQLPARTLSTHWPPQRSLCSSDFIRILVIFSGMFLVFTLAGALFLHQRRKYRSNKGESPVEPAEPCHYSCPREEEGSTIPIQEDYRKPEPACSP
Experiment: cell-based or functional assay
measurement.kind: IL-8, cross-linked by F(ab')2 fragment [abs. corr.] (abs. corr.)
Field: numeric (abs. corr.). Do not append units.

Using known records, supply IL-8, cross-linked by F(ab')2 fragment [abs. corr.] for P018.S.10.A.A04 (antibody, V domains shown, V regions on human Ig constant parts; also called AB27_164) VH: QSVEESGGRLVTPGTPLTLTCTVSGIDLSSNVMTWVRQAPGKGLEWIGYIYASATTYYATWAKGRFTISKTSTTVDLKMTSPTTEDTATYFCARERLASRGDYSDLWGQGTLVTVSS VL: AYDMTQTPASVEAAVGGTVTIKCQASESIGDLLAWYQQKPGQPPKLLIYDASDLASGVPSRFKGSGSGTEFTLTISGVESADAATYYCQQGYTTTSNVDNIFGGGTEVVVK
2.16

Hello, please tell me recorded IL-8, cross-linked by F(ab')2 fragment [abs. corr.] for this one: P018.S.09.A.H03 (antibody, V domains shown, V regions on human Ig constant parts; also called AB27_160) VH: QSLEESGGRLVTPDESLTLTCTVSGFSLSSNAMIWVRQAPGKGLEWIGIIDTGGSAYYASWAKGRFTISKTSTTVDLKITSPTTEDTATYFCARDRYTDSSGYNLWGQGTLVTVSS VL: DIVMTQTPASVEAAVGGTVTIKCQASQSIGASLAWYKQKPGQPPKLLIYSASWLASGVPSRFKGSGSGTEFTLTISDLASADAATYYCQSYYYRSSSGYGYAFGGGTEVVVK
2.13

Identify measured IL-8, cross-linked by F(ab')2 fragment [abs. corr.] corresponding to P018.S.01.A.G06 (antibody, V domains shown, V regions on human Ig constant parts; also called AB27_24) VH: QSLEESGGGLFKPTDTLTLTCTVSGIDLSRYAMGWVRQAPGKGLEYIGIISVGGGTYYANWIKGRFTISSTSTTVDLKITSPTTEDTATYFCARSPYASTSASAFNLWGPGTLVTVSS VL: AFELTQTPSSVEAAVGGTVTIKCQASQSIYSYLSWYQQKPGQPPKLLIYEASKLASGVPSRFSGSGSGTQFTLTISDLESADAATYYCQSYSNTNTNTFGGGTEVVVK
1.09

For the binder P018.S.07.A.E03 (antibody, V domains shown, V regions on human Ig constant parts; also called AB27_125) VH: QSLEESGGRLVTPGTPLTLTCTVSGIDLSSYAMGWVRQAPGKGLELIGLIYASDRTHYATWAKGRFTISKSSTTVDLKATSLTTEDTATYFCGRYGRGSGGYYYGMDLWGPGTLVTVSS VL: DVVMTQTPASVEAAVGGTVTIKCQASQSGDNYLSWYQQKSGQPPKLLIYLASTLASGVPSRFRGSRSGTEYTLTISDLESADAATYYCQNYCAGSGVCVGVAFGGGTEVVVK , report IL-8, cross-linked by F(ab')2 fragment [abs. corr.].
1.51

Please supply the value of reported IL-8, cross-linked by F(ab')2 fragment [abs. corr.] for the item P018.S.04.A.A01 (antibody, V domains shown, V regions on human Ig constant parts; also called AB27_64) VH: QEQLVESGGGLVQPEGSLTLTCTESGFSFSSNAVCWVRQAPGKGLEWIACIYVDSIGSTWYASWAKGRFTISKTSSTTVTLQMTSLTAADTATYFCARGDNIAYFMLWGPGTLVTVSS VL: DIVMTQTPASVEAAVGGTVTIRCQASESITSFLSWYQQKPGQPPKLLIYKISTLASGVPSRFKASGSGTEFTLTISDLESADAAAYYCQGYYYYSNVVYASNGFGGGTEVVVK
1.47

Look up IL-8, cross-linked by F(ab')2 fragment [abs. corr.] of P018.S.07.A.C02 (antibody, V domains shown, V regions on human Ig constant parts; also called AB27_119) VH: QSVEESGGRLVTPGTPLTLTCTASGFSLSSYHMCWVRQAPGKGLEWIGIIYAGSGNTWYASWAKGRFTISKTSTTVDLKITSPTTEDTATYFCARQPGGGASDTQLDLWGQGTLVTVSS VL: AAVLTQTPSPVSAAVGGTVTINCQSSQSVFDNNQLSWFQHKPGQSPKLLIYRASTLASGVPSRFKGSGSGTQFTLTISDLESDDAATYYCLGGYSSSSDTVFGGGTEVVVE and report it.
2.02

Please give the documented IL-8, cross-linked by F(ab')2 fragment [abs. corr.] of P018.S.01.A.H06 (antibody, V domains shown, V regions on human Ig constant parts; also called AB27_26) VH: QEQLKESGGRLVKPDETLTITCTASGFSLSRYDMSWVRQAPGKGLEWIGSIWSDGDTDYANWAKGRFTISKTSTTVDLKITSPTTEDTATYFCARGYTAWSLWGPGTLVTVSS VL: ALVMTQTPSPVSAAVGGTVTISCQSSESVVGNNALSWFQQKPGQPPKLLNYQASTLASGVSSRFSGSGSGTQFTLTISGVQSDDAATYYCQGTYYSSGWYFAFGGGTEVVVK
2.18

Tell me its IL-8, cross-linked by F(ab')2 fragment [abs. corr.] given P018.S.04.A.D05 (antibody, V domains shown, V regions on human Ig constant parts; also called AB27_73) VH: QSLEESGGRLVTPGTPLTLTCTASGIDLSRHAINWVRQAPGKGLEYIGTIYASGSTFYASGAKGRFTISKTSTTVDLGITSLTTEDTATYFCARGITIEWFDLWGQGTLVTVSS VL: AAVLTQTPSSVSAAVGGTVTINCQSSPSVYSNYLSWFQQKPGQPPKLLIYGAATLASGVPSRFRGSGSGTEFTLTITDVQSDDAATYYCLGGYSDTADTIFGGGTEVVVK as the entry.
1.08

Determine its reported IL-8, cross-linked by F(ab')2 fragment [abs. corr.]: P018.S.01.A.D05 (antibody, V domains shown, V regions on human Ig constant parts; also called AB27_13) VH: QSLEESGGRLVTPGTPLTLTCTASGFSLSSYYMSWVRQAPGKGLEYIGGIYTGGSAYYASWARGRFTISRTSTTVDLKMTSLTIEDTATYFCARDAGDRIYTTFNLWGPGTLVTVSS VL: ALVMTQTPASVSEPVGGTVSLKCQASQSIGSDLSWYQQKSGQPPKLLIYRASKLASGVPSRFKGSGSGTEFTLTISGVQSDDAATYYCLGIDSYSSDDGIAFGGGTEVVVK
1.1

Provide only the value of recorded IL-8, cross-linked by F(ab')2 fragment [abs. corr.] for P018.S.03.A.G02 (antibody, V domains shown, V regions on human Ig constant parts; also called AB27_56) VH: QSLEESGGDLVKPGASLTLTCTASGFSFSSGYDMCWVRQAPGKGLEWIACIYAGSNNNTYYASWAKGRFTISKTSSTTVTLQVASLTAADTATYFCARAAGGYADYAYVMGDYFNFWGPGTLVTVSS VL: AYDMTQTPASVEVAVGGTVTIKCQASEDIYSILAWYQQKPGQRPKGLIYSASTLDSGVPLRFSGSGSGTEFTLTISGVQSDDAATYYCQQGYSSSNVDNVFGGGTEVVVK
1.28
